Recorded relative viability, one value per entry.
# Test system: NCI-H2170
# assay-procedure: relative viability (nuclei count vs DMSO), 5 days (fraction); higher = more cells survive
# recorded-conditions: first compound 15.81 µM
reported-property: relative viability

compound	measured-result
O=C(O)CCCCC(CCSCc1ccccc1)SCc1ccccc1 (stereo unspecified) [CPI-613] + C[C@@H](Oc1cc(-c2cnn(C3CCNCC3)c2)cnc1N)c1c(Cl)ccc(F)c1Cl [Crizotinib] (partner 1 µM)	1.18
O=C(O)CCCCC(CCSCc1ccccc1)SCc1ccccc1 (stereo unspecified) [CPI-613] + Nc1ncn([C@H]2C[C@H](O)[C@@H](CO)O2)c(=O)n1 [Decitabine] (partner 2 µM)	0.484
O=C(O)CCCCC(CCSCc1ccccc1)SCc1ccccc1 (stereo unspecified) [CPI-613] + COc1cc2c(Oc3ccc(NC(=O)C4(C(=O)Nc5ccc(F)cc5)CC4)cc3F)ccnc2cc1OCCCN1CCOCC1 [Foretinib] (partner 0.25 µM)	0.906
O=C(O)CCCCC(CCSCc1ccccc1)SCc1ccccc1 (stereo unspecified) [CPI-613] + O=C(c1cc(Cc2n[nH]c(=O)c3ccccc23)ccc1F)N1CCN(C(=O)C2CC2)CC1 [Olaparib] (partner 8 µM)	0.554
O=C(O)CCCCC(CCSCc1ccccc1)SCc1ccccc1 (stereo unspecified) [CPI-613] + COc1cccc2cc(-c3nc([C@H]4CC[C@H](C(=O)O)CC4)n4ncnc(N)c34)[nH]c12 [OSI-027] (partner 0.5 µM)	0.715
O=C(O)CCCCC(CCSCc1ccccc1)SCc1ccccc1 (stereo unspecified) [CPI-613] + Nc1nc2[nH]cc(CCc3ccc(C(=O)N[C@@H](CCC(=O)O)C(=O)O)cc3)c2c(=O)[nH]1 [Pemetrexed] (partner 0.2 µM)	0.251
